measurementLabel: melting point

See these solved cases before continuing.
Cc1nc(NC(=O)Cc2cccc(OC(F)(F)F)c2)ccc1CCCCc1nnc(NC(=O)Cc2ccccn2)s1 [Example-9]    96 to 101 °C
O=C(Cc1ccncc1)Nc1ccc(CCCCc2nnc(NC(=O)Cc3cccc(OC(F)(F)F)c3)s2)cn1 [Example-22]    135 to 137 °C

// below: melting point requested for another compound
IN: Give its melting point value. Item: Cc1ccc(F)c(C(=O)Nc2nnc(CCCCc3ccc(NC(=O)Cc4cccc(OC(F)(F)F)c4)nc3)s2)n1 [Example-37]
OUT: 130 to 133 °C

* * *

# targetOfAssay: L-glutaminase present in mice brain homogenate (Glutaminase(Brain)) (Mus musculus, UniProt D3Z7P3)
# Sequence (D3Z7P3 55-674): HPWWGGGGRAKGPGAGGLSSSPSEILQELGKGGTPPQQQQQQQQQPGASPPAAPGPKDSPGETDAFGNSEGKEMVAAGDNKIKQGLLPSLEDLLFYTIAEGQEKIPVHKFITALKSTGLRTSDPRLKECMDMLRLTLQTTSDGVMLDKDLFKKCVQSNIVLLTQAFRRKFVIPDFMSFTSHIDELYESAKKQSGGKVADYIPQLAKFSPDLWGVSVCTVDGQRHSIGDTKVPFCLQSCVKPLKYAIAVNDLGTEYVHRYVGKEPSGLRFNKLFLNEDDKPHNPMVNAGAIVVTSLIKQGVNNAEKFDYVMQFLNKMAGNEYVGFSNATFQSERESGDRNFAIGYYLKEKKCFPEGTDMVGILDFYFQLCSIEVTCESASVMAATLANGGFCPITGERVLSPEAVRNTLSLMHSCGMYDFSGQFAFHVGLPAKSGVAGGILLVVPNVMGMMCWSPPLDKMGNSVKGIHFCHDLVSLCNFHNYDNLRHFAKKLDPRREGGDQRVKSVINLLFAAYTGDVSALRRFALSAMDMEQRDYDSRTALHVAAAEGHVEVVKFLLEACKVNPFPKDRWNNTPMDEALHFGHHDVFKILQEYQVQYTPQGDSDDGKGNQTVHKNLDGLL
# methodDescription: Glutaminase enzyme activity using glutaminase enzyme from mice brain/kidney homogenate (Nessler's reagent, ammonia)
# Format: biochemical
# testParameters: 1 μM; mice brain homogenate; read-out: Glutaminase(Brain) activity % inhibition @1 μM
inhibition at 1 µM: recorded values

See these solved cases before continuing.
CCC(Cl)C(=O)Nc1nnc(CCCCc2ccc(NC(=O)Cc3cccc(OC(F)(F)F)c3)nc2)s1 (stereo not drawn)    < 25%
O=C(Cc1cccnc1)Nc1ccc(CCCCc2nnc(NC(=O)Cc3cccc(F)c3)s2)cn1    75 to 100%

IN: Give its inhibition at 1 µM value. Item: Cc1nc(NC(=O)Cc2cccc(OC(F)(F)F)c2)ccc1CCCCc1nnc(NC(=O)Cc2ccccn2)s1
OUT: < 25%

The values you see were collected from patent US20160297761A1.
